Tested on: protein O‐GlcNAc modification in human embryonic kidney cells
Experiment: Cellular protein O-GlcNAc increase
Type: cell-based
Conditions: read-out: Protein O‐GlcNAc (cellular) Relative EC50
readout.kind: pEC50
Here pEC50 is given on a logarithmic scale as minus log10 of the concentration in mol/L.

Q) Fill in: pEC50 on protein O‐GlcNAc modification in human embryonic kidney cells, entry CC(=O)Nc1nc(F)c(CN2CC[C@H](OCc3noc(C)n3)C[C@@H]2C)s1 [ceperognastat]
A) 7.66

###

Biological target: human ether‐à‐go‐go (hERG) channel (Homo sapiens, UniProt Q12809)
Sequence (Q12809 whole entry): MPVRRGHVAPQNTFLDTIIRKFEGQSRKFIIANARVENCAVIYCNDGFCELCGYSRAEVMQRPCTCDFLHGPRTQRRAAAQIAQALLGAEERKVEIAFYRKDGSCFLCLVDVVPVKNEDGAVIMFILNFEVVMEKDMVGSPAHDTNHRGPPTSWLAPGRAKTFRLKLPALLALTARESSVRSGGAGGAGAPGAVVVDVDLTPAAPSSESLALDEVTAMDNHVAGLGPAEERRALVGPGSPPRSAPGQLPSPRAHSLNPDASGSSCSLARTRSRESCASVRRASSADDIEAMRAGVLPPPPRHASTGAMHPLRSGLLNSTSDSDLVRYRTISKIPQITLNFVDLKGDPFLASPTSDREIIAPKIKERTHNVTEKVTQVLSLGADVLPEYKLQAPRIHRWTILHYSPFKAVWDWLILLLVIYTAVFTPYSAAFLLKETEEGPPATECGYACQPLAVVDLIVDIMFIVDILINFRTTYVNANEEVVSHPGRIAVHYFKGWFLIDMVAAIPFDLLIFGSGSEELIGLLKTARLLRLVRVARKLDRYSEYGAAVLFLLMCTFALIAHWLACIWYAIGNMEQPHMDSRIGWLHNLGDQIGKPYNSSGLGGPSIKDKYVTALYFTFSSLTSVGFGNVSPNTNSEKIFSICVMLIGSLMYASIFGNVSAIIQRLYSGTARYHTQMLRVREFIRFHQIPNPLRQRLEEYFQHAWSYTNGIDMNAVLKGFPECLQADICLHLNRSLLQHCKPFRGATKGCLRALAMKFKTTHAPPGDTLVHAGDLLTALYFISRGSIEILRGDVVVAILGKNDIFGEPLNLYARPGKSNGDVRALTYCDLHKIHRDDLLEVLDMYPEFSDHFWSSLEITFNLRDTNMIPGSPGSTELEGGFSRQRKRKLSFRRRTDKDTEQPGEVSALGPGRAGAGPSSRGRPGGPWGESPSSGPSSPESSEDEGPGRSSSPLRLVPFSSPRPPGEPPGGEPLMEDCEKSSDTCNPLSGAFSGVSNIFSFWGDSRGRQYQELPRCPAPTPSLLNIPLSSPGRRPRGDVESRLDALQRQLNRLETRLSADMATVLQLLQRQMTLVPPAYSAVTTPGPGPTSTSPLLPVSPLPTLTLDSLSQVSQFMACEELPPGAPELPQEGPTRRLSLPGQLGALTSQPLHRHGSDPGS
readout.kind: IC50 (µM)
// note: answer is a bare numeric in µM

Q) Print human ether‐à‐go‐go (hERG) channel (Homo sapiens, UniProt Q12809) IC50 for CC(=O)Nc1nc(F)c(CN2CC[C@H](OCc3noc(C)n3)C[C@@H]2C)s1 .
A) 81

The measured values listed here are drawn from paper PMC11694536.
